Biological target: human AChE (Homo sapiens)
Sequence (P22303 32-614): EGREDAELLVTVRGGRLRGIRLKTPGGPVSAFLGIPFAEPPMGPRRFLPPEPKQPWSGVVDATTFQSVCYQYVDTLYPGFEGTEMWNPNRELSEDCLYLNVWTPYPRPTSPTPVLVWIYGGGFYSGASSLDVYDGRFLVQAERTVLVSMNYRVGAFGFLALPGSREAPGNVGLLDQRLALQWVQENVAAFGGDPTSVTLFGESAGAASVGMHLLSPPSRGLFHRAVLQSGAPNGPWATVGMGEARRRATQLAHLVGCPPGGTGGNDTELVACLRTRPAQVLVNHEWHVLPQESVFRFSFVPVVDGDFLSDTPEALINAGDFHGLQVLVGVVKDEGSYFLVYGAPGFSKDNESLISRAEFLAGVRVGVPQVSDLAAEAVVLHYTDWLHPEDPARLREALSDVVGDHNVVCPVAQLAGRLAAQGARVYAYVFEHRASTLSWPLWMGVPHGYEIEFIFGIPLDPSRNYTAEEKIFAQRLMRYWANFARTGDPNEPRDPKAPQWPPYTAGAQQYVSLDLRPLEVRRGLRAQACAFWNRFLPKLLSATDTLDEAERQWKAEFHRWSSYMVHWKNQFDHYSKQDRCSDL
Details: read-out: KI, dissociation constant of the Michaelis complex, AChE form E
READOUT TYPE: Ki

Input: Which Ki is reported for this molecule? Cc1ccccc1OP1(=O)OCc2ccccc2O1 (stereo not shown) [CBDP]
Output: < 100 nM

From: paper PMC3118852
